system: Candida albicans; assay: Antifungal activity against Candida albicans after 24 hrs by twofold serial dilution method; assay type: functional
molecules and their reported -logMIC
No unit in the answer, please; the number alone is enough.

• CC[C@@H]1/C(=N/NC(=S)Nc2ccccc2)C[C@@H](c2ccccc2)O[C@H]1c1ccccc1 = 4
• C[C@@H]1/C(=N\NC(N)=S)[C@@H](C)[C@H](c2ccc(Cl)cc2)O[C@@H]1c1ccc(Cl)cc1 = 4.602
• C[C@@H]1/C(=N\NC(N)=S)[C@@H](C)[C@H](c2ccc(Br)cc2)O[C@@H]1c1ccc(Br)cc1 = 4.301
• C[C@@H]1/C(=N\NC(=S)Nc2ccccc2)[C@@H](C)[C@H](c2cccc(Cl)c2)O[C@@H]1c1cccc(Cl)c1 = 4.602
• CC[C@@H]1/C(=N/NC(N)=S)C[C@@H](c2ccccc2)O[C@H]1c1ccccc1 = 3.698

Qu. Sample `C[C@@H]1/C(=N\NC(=S)Nc2ccccc2)[C@@H](C)[C@H](c2ccccc2Cl)O[C@@H]1c1ccccc1Cl` — what was its -logMIC?
Ans. 4.301

Qu. Sample `COc1cccc([C@H]2O[C@@H](c3cccc(OC)c3)[C@H](C)/C(=N/NC(=S)Nc3ccccc3)[C@H]2C)c1` — what was its -logMIC?
Ans. 4.602

Qu. Sample `C[C@@H]1/C(=N\NC(N)=S)[C@@H](C)[C@H](c2ccc(F)cc2)O[C@@H]1c1ccc(F)cc1` — what was its -logMIC?
Ans. 4

---

tested on: Klebsiella pneumoniae; assay: Antibacterial activity against Klebsiella pneumoniae ATCC 15490 after 24 hrs by twofold serial dilution method; type: functional
molecules and their reported -logMIC
No unit in the answer, please; the number alone is enough.

In the examples that follow, each entry is paired with its recorded -logMIC.
- C[C@@H]1/C(=N/NC(=S)Nc2ccccc2)C[C@@H](c2ccccc2)O[C@H]1c1ccccc1: 4
- C[C@@H]1/C(=N\NC(=S)Nc2ccccc2)[C@@H](C)[C@H](c2ccc(Cl)cc2)O[C@@H]1c1ccc(Cl)cc1: 4.903
- Cc1ccc([C@H]2O[C@@H](c3ccc(C)cc3)[C@H](C)/C(=N/NC(N)=S)[C@H]2C)cc1: 4
- COc1cccc([C@H]2O[C@@H](c3cccc(OC)c3)[C@H](C)/C(=N/NC(=S)Nc3ccccc3)[C@H]2C)c1: 4
- CC[C@@H]1/C(=N/NC(N)=S)C[C@@H](c2ccccc2)O[C@H]1c1ccccc1: 4
- COc1ccc([C@H]2O[C@@H](c3ccc(OC)cc3)[C@H](C)/C(=N/NC(N)=S)[C@H]2C)cc1: 4.301
- C[C@@H]1/C(=N\NC(=S)Nc2ccccc2)[C@@H](C)[C@H](c2ccc(Br)cc2)O[C@@H]1c1ccc(Br)cc1: 4.602
- C[C@@H]1/C(=N\NC(N)=S)[C@@H](C)[C@H](c2ccc(Cl)cc2)O[C@@H]1c1ccc(Cl)cc1: 4.602
- C[C@@H]1/C(=N\NC(=S)Nc2ccccc2)[C@@H](C)[C@H](c2ccccc2Cl)O[C@@H]1c1ccccc1Cl: 4.903
- C[C@@H]1/C(=N/NC(N)=S)C[C@@H](c2ccccc2)O[C@H]1c1ccccc1: 4

Qu. Sample `COc1ccc([C@H]2O[C@@H](c3ccc(OC)cc3)[C@H](C)/C(=N/NC(=S)Nc3ccccc3)[C@H]2C)cc1` — what was its -logMIC?
Ans. 4.602
